Assay: collision cross section of modified peptide (TIMS, N2, iRT-aligned); higher = larger / more extended gas-phase ion
Conditions: charge state: 2; modification: Acetyl (K)
Here, each record is paired with measured collision cross section data.

Sequence text	collision cross section / Å²
FGTINIVHPKLGSYTK [_FGTINIVHPK(Acetyl (K))LGSYTK_]	467.42
DKALPLEAEVAPVK [_DK(Acetyl (K))ALPLEAEVAPVK_]	407.82
TFGKAAGPSLSHTSGGTQSK [_TFGK(Acetyl (K))AAGPSLSHTSGGTQSK_]	486.77
PSVSTKLISK [_PSVSTK(Acetyl (K))LISK_]	351
DVNAAIAAIKTK [_DVNAAIAAIK(Acetyl (K))TK_]	390.07
DHLSDKESK [_DHLSDK(Acetyl (K))ESK_]	350.98
VNALKNLQVK [_VNALK(Acetyl (K))NLQVK_]	369.79
SSFAYKDQNENR [_SSFAYK(Acetyl (K))DQNENR_]	398.41
ILDLKTGTVK [_ILDLK(Acetyl (K))TGTVK_]	355.21
VLDSGAPIKIPVGPETLGR [_VLDSGAPIK(Acetyl (K))IPVGPETLGR_]	463.33
AAINQKLIETGER [_AAINQK(Acetyl (K))LIETGER_]	403.07
